// data source = paper PMC4421842

- System: MRSA clinical isolates
- Test name: microbe, parasite or virus in culture
- Type: cell-based, S. aureus
- Run conditions: Staphylococcus aureus, MRSA, strain SAU.3021; read-out: MIC
Mark TRUE for MIC under 0.1 µg/mL, FALSE if at or over.

CCCn1c(=O)cc(C)c2cc3c(C)cc(=O)n4c3c(c21)OC4 | FALSE

INPUT: Please state whether MIC is below 0.1 µg/mL for CO[C@@H]1[C@@H](OC(N)=O)[C@@H](O)[C@H](Oc2ccc3c(O)c(NC(=O)c4ccc(O)c(CC=C(C)C)c4)c(=O)oc3c2C)OC1(C)C [Novo, Novobiocin, reference compound]
OUTPUT: FALSE

INPUT: Please state whether MIC is below 0.1 µg/mL for CN[C@H](CC(C)C)C(=O)N[C@H]1C(=O)N[C@@H](CC(N)=O)C(=O)N[C@H]2C(=O)N[C@H]3C(=O)N[C@H](C(=O)N[C@H](C(=O)O)c4cc(O)cc(O)c4-c4cc3ccc4O)[C@H](O)c3ccc(c(Cl)c3)Oc3cc2cc(c3O[C@@H]2O[C@H](CO)[C@@H](O)[C@H](O)[C@H]2O[C@H]2C[C@](C)(N)[C@H](O)[C@H](C)O2)Oc2ccc(cc2Cl)[C@H]1O [vancomycin, reference compound]
OUTPUT: FALSE

INPUT: Please state whether MIC is below 0.1 µg/mL for Cc1cc(=O)n(C)c2c3c4c(cc12)c(C)cc(=O)n4CO3
OUTPUT: TRUE

INPUT: Please state whether MIC is below 0.1 µg/mL for CCn1c(=O)cc(C)c2cc3c(C)cc(=O)n4c3c(c21)OC4
OUTPUT: TRUE

----------
- Test system: FQR S. aureus (NRS3, FQR)
- Test name: MIC, microdilution broth assay, FQR MRSA NRS3
- Assay type: cell-based
- Run conditions: NRS3; S84L GyrA and S80F ParC; three independent replicates
Below: a set of entries, each annotated with reported MIC against S. aureus NRS3.
Provide only the numeric value, understood in µg/mL.

The examples below pair each entry with its known result.
Cc1cc(=O)n2c3c(c4c(cc13)c(C)cc(=O)n4CC(C)(C)C)OC2 [compound 12] | 16
CCCCCCn1c(=O)cc(C)c2cc3c(C)cc(=O)n4c3c(c21)OC4 [compound 10] | 1
CCCCCn1c(=O)cc(C)c2cc3c(C)cc(=O)n4c3c(c21)OC4 [compound 9] | 0.25
CCc1cc(=O)n(C)c2c3c4c(cc12)c(C)cc(=O)n4CO3 [compound 4] | 0.25
CCCCCCCCCC(=O)N[C@@H](Cc1c[nH]c2ccccc12)C(=O)N[C@H](CC(N)=O)C(=O)N[C@@H](CC(=O)O)C(=O)N[C@@H]1C(=O)NCC(=O)N[C@@H](CCCN)C(=O)N[C@@H](CC(=O)O)C(=O)N[C@H](C)C(=O)N[C@@H](CC(=O)O)C(=O)NCC(=O)N[C@H](CO)C(=O)N[C@@H]([C@H](C)CC(=O)O)C(=O)N[C@@H](CC(=O)c2ccccc2N)C(=O)O[C@@H]1C [daptomycin, reference compound] | 8

Could you now consider this next molecule?
INPUT: Look up MIC against S. aureus NRS3 for this molecule: CN[C@H](CC(C)C)C(=O)N[C@H]1C(=O)N[C@@H](CC(N)=O)C(=O)N[C@H]2C(=O)N[C@H]3C(=O)N[C@H](C(=O)N[C@H](C(=O)O)c4cc(O)cc(O)c4-c4cc3ccc4O)[C@H](O)c3ccc(c(Cl)c3)Oc3cc2cc(c3O[C@@H]2O[C@H](CO)[C@@H](O)[C@H](O)[C@H]2O[C@H]2C[C@](C)(N)[C@H](O)[C@H](C)O2)Oc2ccc(cc2Cl)[C@H]1O [vancomycin, reference compound]
OUTPUT: 8

----------
- Test name: physchem
- Run conditions: pH 7.4
Measurement type: solubility at 1 h (µM)
Provide only the numeric value, understood in µM.

Cc1cc(=O)n(C)c2c3c4c(cc12)c(C)cc(=O)n4CO3 | 9
CCCn1c(=O)cc(C)c2cc3c(C)cc(=O)n4c3c(c21)OC4 | 68
CCc1cc(=O)n2c3c(c4c(cc13)c(C)cc(=O)n4C)OC2 | 27
CCc1cc(=O)n(C)c2c3c4c(cc12)c(CC)cc(=O)n4CO3 | 48
CCc1cc(=O)n(C)c2c3c4c(cc12)c(C)cc(=O)n4CO3 | 53

Could you now consider this next molecule?
INPUT: Look up solubility at 1 h for this molecule: CCn1c(=O)cc(C)c2cc3c(C)cc(=O)n4c3c(c21)OC4
OUTPUT: 121

----------
- Tested on: MRSA clinical isolates
- Test name: microbe, parasite or virus in culture
- Assay type: cell-based, S. aureus
- Run conditions: Staphylococcus aureus, MRSA, strain SAU.1118; read-out: MIC
Measurement type: MIC (µg/mL)
Provide only the numeric value, understood in µg/mL.

The examples below pair each entry with its known result.
Cc1cc(=O)n(C)c2c3c4c(cc12)c(C)cc(=O)n4CO3 | 1
CCn1c(=O)cc(C)c2cc3c(C)cc(=O)n4c3c(c21)OC4 | 2

INPUT: Look up MIC for this molecule: CO[C@@H]1[C@@H](OC(N)=O)[C@@H](O)[C@H](Oc2ccc3c(O)c(NC(=O)c4ccc(O)c(CC=C(C)C)c4)c(=O)oc3c2C)OC1(C)C [Novo, Novobiocin, reference compound]
OUTPUT: 0.5

INPUT: Look up MIC for this molecule: CN[C@H](CC(C)C)C(=O)N[C@H]1C(=O)N[C@@H](CC(N)=O)C(=O)N[C@H]2C(=O)N[C@H]3C(=O)N[C@H](C(=O)N[C@H](C(=O)O)c4cc(O)cc(O)c4-c4cc3ccc4O)[C@H](O)c3ccc(c(Cl)c3)Oc3cc2cc(c3O[C@@H]2O[C@H](CO)[C@@H](O)[C@H](O)[C@H]2O[C@H]2C[C@](C)(N)[C@H](O)[C@H](C)O2)Oc2ccc(cc2Cl)[C@H]1O [vancomycin, reference compound]
OUTPUT: 2

INPUT: Look up MIC for this molecule: CCCn1c(=O)cc(C)c2cc3c(C)cc(=O)n4c3c(c21)OC4
OUTPUT: 8

----------
Below: a set of entries, each annotated with reported MIC.
- System: MRSA clinical isolates
- Test name: microbe, parasite or virus in culture
- Type: cell-based, S. aureus
- Run conditions: Staphylococcus aureus, MRSA, strain SAU.555; read-out: MIC
Provide only the numeric value, understood in mg/L.

INPUT: Field: MIC (MRSA clinical isolates). Entry: Cc1cc(=O)n(C)c2c3c4c(cc12)c(C)cc(=O)n4CO3 [DNM, deoxynybomycin]
OUTPUT: 0.125

INPUT: Field: MIC (MRSA clinical isolates). Entry: CO[C@@H]1[C@@H](OC(N)=O)[C@@H](O)[C@H](Oc2ccc3c(O)c(NC(=O)c4ccc(O)c(CC=C(C)C)c4)c(=O)oc3c2C)OC1(C)C [Novo, Novobiocin, reference compound]
OUTPUT: 0.25

INPUT: Field: MIC (MRSA clinical isolates). Entry: CCn1c(=O)cc(C)c2cc3c(C)cc(=O)n4c3c(c21)OC4 [DNM-2]
OUTPUT: 0.25

----------
- Test system: WT S. aureus (ATCC 29213, WT)
- Test name: microbe, parasite or virus in culture
- Format: cell-based
- Run conditions: Staphylococcus aureus, ATCC29213, ATCC 29213; WT GyrA and WT ParC; three independent replicates; read-out: MIC against S. aureus 29213
Measurement type: MIC (µg/mL)
Provide only the numeric value, understood in µg/mL.

The examples below pair each entry with its known result.
CCCc1cc(=O)n2c3c(c4c(cc13)c(C)cc(=O)n4C)OC2 [compound 6] | 16
CCCc1cc(=O)n(C)c2c3c4c(cc12)c(C)cc(=O)n4CO3 [compound 7] | 16

INPUT: Look up MIC for this molecule: CCc1cc(=O)n2c3c(c4c(cc13)c(C)cc(=O)n4C)OC2 [DNM-3]
OUTPUT: 8

INPUT: Look up MIC for this molecule: CCCCCn1c(=O)cc(C)c2cc3c(C)cc(=O)n4c3c(c21)OC4 [compound 9]
OUTPUT: 32

----------
- Test system: MRSA clinical isolates
- Test name: microbe, parasite or virus in culture
- Format: cell-based, S. aureus
- Run conditions: Staphylococcus aureus, MRSA, strain SAU.555; read-out: MIC
Measurement type: MIC

CN[C@H](CC(C)C)C(=O)N[C@H]1C(=O)N[C@@H](CC(N)=O)C(=O)N[C@H]2C(=O)N[C@H]3C(=O)N[C@H](C(=O)N[C@H](C(=O)O)c4cc(O)cc(O)c4-c4cc3ccc4O)[C@H](O)c3ccc(c(Cl)c3)Oc3cc2cc(c3O[C@@H]2O[C@H](CO)[C@@H](O)[C@H](O)[C@H]2O[C@H]2C[C@](C)(N)[C@H](O)[C@H](C)O2)Oc2ccc(cc2Cl)[C@H]1O [vancomycin, reference compound] | 1 µg/mL

Could you now consider this next compound?
INPUT: Look up MIC for this compound: CCCn1c(=O)cc(C)c2cc3c(C)cc(=O)n4c3c(c21)OC4
OUTPUT: 0.5 µg/mL
